The reader will find reported kon values listed item by item below.
# target entity: T1, monovalent hVISTA-ECD with polyhistidine tail (SEQ ID NO: 325) (human, UniProt Q9H7M9 33-193)
# T1 construct: also called hVISTA-ECD 6-His tag; human VISTA
# T1 sequence (Q9H7M9 other isoform, or with tags, fused parts or gaps limits assumed): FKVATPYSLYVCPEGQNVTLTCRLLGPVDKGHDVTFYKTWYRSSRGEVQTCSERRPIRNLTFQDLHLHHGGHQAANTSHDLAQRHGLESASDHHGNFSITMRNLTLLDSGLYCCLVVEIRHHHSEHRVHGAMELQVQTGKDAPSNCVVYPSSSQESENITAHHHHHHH
# experimental details: SPR, mAb captured on Protein A chip, hVISTA injected, PBST pH 6.0, 37 C
Respond with the bare value in M⁻¹ s⁻¹.

Recorded kon, per entry:
# binder, value measured
measured = [
    ("P1-068748 (antibody, V domains shown, captured on a Protein A chip) VH: QVQLVESGGGVVQPGRSLRLSCAASGFTFSHHAMHWVRQAPGKGLEWVAIIWYDGSNDDYADSVKGRFTISRDNSKNTLYLQMNSLRAEDTAVYYCARDSGFYDSYYFDYWGQGTLVTVSS VL: EIVLTQSPATLSLSPGERATLSCRASQSVSSSYLAWYQQKPGQAPRLLIYDASNRATGIPARFSGSGSGTDFTLTISSLEPEDFATYYCQQYNSYPYTFGQGTKLEIK", 310000),
    ("P1-077873 (P1-068748 D100S) (antibody, V domains shown, Reversion mutant of P1-068748 (Kabat names); captured on a Protein A chip) VH: QVQLVESGGGVVQPGRSLRLSCAASGFTFSHHAMHWVRQAPGKGLEWVAIIWYDGSNDDYADSVKGRFTISRDNSKNTLYLQMNSLRAEDTAVYYCARDSGFYSSYYFDYWGQGTLVTVSS VL: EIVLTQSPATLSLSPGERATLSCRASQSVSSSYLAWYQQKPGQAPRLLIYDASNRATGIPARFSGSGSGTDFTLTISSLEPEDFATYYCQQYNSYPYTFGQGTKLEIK", "1.8e+06"),
]

Noted for P1-077867 (P1-068748 H32Y) (antibody, V domains shown, Reversion mutant of P1-068748 (Kabat names); captured on a Protein A chip) VH: QVQLVESGGGVVQPGRSLRLSCAASGFTFSHYAMHWVRQAPGKGLEWVAIIWYDGSNDDYADSVKGRFTISRDNSKNTLYLQMNSLRAEDTAVYYCARDSGFYDSYYFDYWGQGTLVTVSS VL: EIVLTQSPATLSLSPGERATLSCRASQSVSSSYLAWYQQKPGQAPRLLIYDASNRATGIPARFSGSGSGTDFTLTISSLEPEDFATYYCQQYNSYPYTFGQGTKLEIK : its kon reads 1.3e+06

Origin of values: patent US20230192860A1
